Parameter 'readout' = IC50; parameter 'system' = AfPGM (Aspergillus fumigatus).
Sequence (Q4WY53 whole entry): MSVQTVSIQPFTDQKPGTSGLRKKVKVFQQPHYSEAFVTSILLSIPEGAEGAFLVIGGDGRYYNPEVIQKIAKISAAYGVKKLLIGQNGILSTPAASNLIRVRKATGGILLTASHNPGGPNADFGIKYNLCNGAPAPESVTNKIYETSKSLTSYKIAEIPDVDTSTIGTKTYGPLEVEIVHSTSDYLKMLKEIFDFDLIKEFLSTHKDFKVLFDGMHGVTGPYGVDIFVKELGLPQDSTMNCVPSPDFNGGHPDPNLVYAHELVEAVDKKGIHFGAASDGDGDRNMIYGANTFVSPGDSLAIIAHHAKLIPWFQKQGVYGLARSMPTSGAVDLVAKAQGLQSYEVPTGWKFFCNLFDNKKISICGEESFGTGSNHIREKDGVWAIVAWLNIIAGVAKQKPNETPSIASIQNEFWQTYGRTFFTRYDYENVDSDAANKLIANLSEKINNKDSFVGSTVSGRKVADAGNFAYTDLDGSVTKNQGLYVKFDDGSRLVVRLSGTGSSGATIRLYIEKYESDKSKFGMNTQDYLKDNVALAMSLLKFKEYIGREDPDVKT
Please respond with the number in nM and leave the unit unwritten.

The following molecules have reported results that may help.
CC(C)OC(=O)c1ccc(-n2sccc2=O)cc1 [ISFP11]: 3100
O=C(OCc1ccccc1)c1ccc(-n2sccc2=O)cc1 [ISFP10]: 2000
O=c1ccsn1-c1cccc(Cl)c1 [ISFP13, 2-(3-chlorophenyl)isothiazol-3(2H)-one]: 5800
CCOC(=O)c1cc2cc(-n3sccc3=O)ccc2o1 [ISFP15]: 2300

**Query** Give IC50 (AfPGM (Aspergillus fumigatus)) of the following molecule: O=c1ccsn1-c1cccc(Cl)c1F [ISFP1]
**Result** 2000

**Query** What value of IC50 on AfPGM (Aspergillus fumigatus) does O=c1ccsn1-c1c(F)cccc1F [ISFP20] have?
**Result** 19000

###

EXPERIMENTAL SYSTEM: HsPGM (Homo sapiens, UniProt P36871)
Construct: Full length HsPGM; 6His-GST (N, cleaved yes); made in house; host or cells: E. coli BL21 (DE3) pLysS (same protocol as AfPGM)
Sequence (P36871 whole entry): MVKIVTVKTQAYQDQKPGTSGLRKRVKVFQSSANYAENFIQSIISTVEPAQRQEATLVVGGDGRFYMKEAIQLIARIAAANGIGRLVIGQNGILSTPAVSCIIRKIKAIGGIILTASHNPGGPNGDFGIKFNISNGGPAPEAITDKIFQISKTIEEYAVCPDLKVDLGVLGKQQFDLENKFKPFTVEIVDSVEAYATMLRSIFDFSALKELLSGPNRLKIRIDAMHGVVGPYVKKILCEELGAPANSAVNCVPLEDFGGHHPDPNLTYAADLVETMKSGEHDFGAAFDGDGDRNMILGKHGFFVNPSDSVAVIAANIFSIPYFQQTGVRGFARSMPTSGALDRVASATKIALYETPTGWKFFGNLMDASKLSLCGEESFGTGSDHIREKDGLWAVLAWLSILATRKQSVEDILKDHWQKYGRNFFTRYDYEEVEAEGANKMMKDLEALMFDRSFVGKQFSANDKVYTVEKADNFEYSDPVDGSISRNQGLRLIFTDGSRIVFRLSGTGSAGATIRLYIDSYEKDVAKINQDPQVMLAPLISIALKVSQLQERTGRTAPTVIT
PROCEDURE SUMMARY: G6PDH coupled assay for PGM, HsPGM
Assay type: biochemical
RECORDED CONDITIONS: IC50 HsPGM, HsPGM 5 nM, no preincubation; > values: highest concentration at which the compound can solubilize
OBSERVABLE: IC50 (µM)
Field format: number, assumed µM, no unit text.

**Query** Item O=c1ccsn1-c1cccc(Cl)c1F [ISFP1] with HsPGM (Homo sapiens, UniProt P36871) - IC50?
**Result** 80
